Data origin, for the record: ChEMBL document CHEMBL1142995

# TARGET_OR_TEST_SYSTEM: Glycine receptor subunit alpha-1 (Homo sapiens, UniProt P23415)
# Sequence (P23415 whole entry): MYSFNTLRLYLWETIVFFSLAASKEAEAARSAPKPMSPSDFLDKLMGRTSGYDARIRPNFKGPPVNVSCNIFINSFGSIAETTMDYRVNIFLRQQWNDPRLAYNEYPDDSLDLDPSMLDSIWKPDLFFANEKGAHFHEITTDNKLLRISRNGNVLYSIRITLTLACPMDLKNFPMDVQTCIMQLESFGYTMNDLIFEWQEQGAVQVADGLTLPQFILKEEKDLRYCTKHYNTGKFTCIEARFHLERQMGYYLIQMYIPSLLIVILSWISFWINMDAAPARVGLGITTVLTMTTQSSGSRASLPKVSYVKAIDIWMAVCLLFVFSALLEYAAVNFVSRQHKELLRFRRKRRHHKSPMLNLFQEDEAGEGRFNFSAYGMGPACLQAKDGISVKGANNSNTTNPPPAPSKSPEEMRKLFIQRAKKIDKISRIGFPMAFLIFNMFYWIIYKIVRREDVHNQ
# ASSAY_EXPLANATION: Activity at human alpha-1GlyR expressed in HEK293 cells by FMP assay
# Format: cell-based
pIC50: −log10 of the molar value.
List of pIC50 values.

MOLECULE | RELATION_QUALIFIER | pIC50
C[C@@H]1C(=O)O[C@H]2C[C@@]34O[C@@H]5OC(=O)[C@H](O)[C@@]56[C@H](C(C)(C)C)[C@H](O)C(OC3=O)[C@]64[C@]21O (stereo partly specified) [GINKGOLIDE J] | = | 5.15
CC1=C2[C@H](C[C@]34[C@H]5C[C@@H](C(C)(C)C)[C@]36[C@@H](OC(=O)[C@@H]6O)O[C@]24OC5=O)OC1=O [3,14-DIDEHYDROGINKGOLIDE A] | = | 5.21
C[C@@H]1CO[C@@H]2C[C@@]34C5C[C@@H](C(C)(C)C)C36C(OC(=O)[C@@H]6O)O[C@]4(C(=O)O5)[C@@]12O (stereo partly specified) | < | 4.00
COC1C[C@]23C4C[C@@H](C(C)(C)C)C25C(OC(=O)[C@@H]5OC(C)=O)O[C@@]3(C(=O)O1)C(=O)O4 (stereo partly specified) | < | 4.00
C[C@@H]1C(=O)O[C@H]2C[C@]34C5OC(=O)[C@]3(OC(O)C4[C@H](C(C)(C)C)[C@H]5O)[C@]21O (stereo partly specified) | < | 4.00
C[C@@H]1C(=O)O[C@H]2[C@H](O)[C@@]34[C@H]5C[C@@H](C(C)(C)C)[C@]36[C@@H](OC(=O)[C@@H]6O)O[C@@]4(C(=O)O5)[C@@]12O [GINKOLIDE B] | = | 5.54

###

# TARGET_OR_TEST_SYSTEM: Glycine receptor subunit alpha-1 (Homo sapiens, UniProt P23415)
# ASSAY_EXPLANATION: Activity at human alpha-1-beta-GlyR expressed in HEK293 cells by FMP assay
# Assay type: cell-based
List of IC50 values.
ASSAY_METRIC: IC50

MOLECULE | VALUE_REPORTED
C[C@@H]1C(=O)O[C@H]2C[C@@]34[C@H]5C[C@@H](C(C)(C)C)[C@]36[C@@H](OC(=O)[C@@H]6O)O[C@@]4(C(=O)O5)[C@]21O [GINKGOLIDE A] | 0.69 µM
CC(=O)O[C@H]1C(=O)OC2O[C@@]34C(=O)OC5C[C@@H](C(C)(C)C)C21[C@@]53C[C@@H]1OC(=O)[C@@H](C)[C@@]14O (stereo partly drawn) [10-ACETOXY-GINKGOLIDE B] | > 100 µM
C[C@@H]1C(=O)O[C@H]2[C@H](O)[C@]34[C@@H]5C(=O)O[C@@]3(O[C@@H]3OC(=O)[C@H](O)[C@@]34[C@H](C(C)(C)C)[C@@H]5Cl)[C@@]12O | 3.2 µM

###

# TARGET_OR_TEST_SYSTEM: Glycine receptor subunit alpha-2 (Homo sapiens, UniProt P23416)
# Sequence (P23416 whole entry): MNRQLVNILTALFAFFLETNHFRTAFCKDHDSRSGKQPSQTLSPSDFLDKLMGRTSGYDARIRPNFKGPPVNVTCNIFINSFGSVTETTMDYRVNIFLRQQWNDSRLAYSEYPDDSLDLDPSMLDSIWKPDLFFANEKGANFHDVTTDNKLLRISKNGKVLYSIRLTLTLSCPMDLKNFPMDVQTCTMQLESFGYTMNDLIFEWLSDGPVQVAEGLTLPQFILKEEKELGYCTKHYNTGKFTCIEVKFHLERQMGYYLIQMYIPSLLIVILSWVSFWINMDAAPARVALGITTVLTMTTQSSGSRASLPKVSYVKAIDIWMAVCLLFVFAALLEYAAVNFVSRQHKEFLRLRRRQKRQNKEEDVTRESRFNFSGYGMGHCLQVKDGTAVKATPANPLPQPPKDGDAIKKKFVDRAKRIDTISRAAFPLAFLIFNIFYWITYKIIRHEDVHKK
# ASSAY_EXPLANATION: Activity at human alpha-2GlyR expressed in HEK293 cells by FMP assay
List of IC50 values.
ASSAY_METRIC: IC50

COMPOUND | VALUE_REPORTED
CO[C@H]1C(=O)O[C@H]2O[C@@]34OC(=O)[C@@H]5[C@H](O)[C@@H](C(C)(C)C)[C@@]21[C@@]53[C@@H](O)[C@@H]1OC(=O)[C@@H](C)[C@@]14O | 7.8 µM
C[C@@H]1C(=O)O[C@H]2[C@H](O)[C@]34[C@@H]5C(=O)O[C@@]3(O[C@@H]3OC(=O)[C@H](O)[C@@]34[C@H](C(C)(C)C)[C@@H]5Cl)[C@@]12O | 13 µM
C[C@@H]1C(=O)O[C@H]2C[C@@]34O[C@@H]5OC(=O)[C@H](O)[C@@]56[C@H](C(C)(C)C)[C@H](O)C(OC3=O)[C@]64[C@]21O (some centres undefined) [GINKGOLIDE J] | 12 µM
CC(C)(C)[C@@H]1CC2OC(=O)C34OC5OC(=O)[C@H](O)C51[C@@]23CC1OC(=O)[C@](C)(O)[C@@]14O (some centres undefined) | > 100 µM
C[C@@H]1C(=O)O[C@H]2[C@H](O)[C@]34C5OC(=O)[C@@]3(OC3OC(=O)[C@H](O)C34[C@H](C(C)(C)C)[C@@H]5O)[C@@]12O (some centres undefined) | > 100 µM
CN[C@@H]1C2OC(=O)[C@]34OC5OC(=O)[C@H](O)C5([C@@H]1C(C)(C)C)[C@@]23[C@@H](O)[C@@H]1OC(=O)[C@@H](C)[C@@]14O (some centres undefined) | > 100 µM
CCN[C@@H]1C2OC(=O)[C@]34OC5OC(=O)[C@H](O)C5([C@@H]1C(C)(C)C)[C@@]23[C@@H](O)[C@@H]1OC(=O)[C@@H](C)[C@@]14O (some centres undefined) | > 100 µM
C[C@@H]1C(=O)OC2[C@@H]3OCO[C@H]4C(=O)OC5OC6(C(=O)OC7C[C@@H](C(C)(C)C)C54[C@]736)[C@]21O (some centres undefined) | 12 µM
C[C@@H]1CO[C@H]2C[C@@]34C5C[C@@H](C(C)(C)C)C36C(OC[C@@H]6O)O[C@]4(C(=O)O5)[C@@]12O (some centres undefined) | > 100 µM
C[C@@H]1C(=O)O[C@H]2[C@H](O)[C@]34C5OC(=O)[C@@]3(OC3OC(=O)[C@H](O)C34[C@H](C(C)(C)C)C5=O)[C@@]12O (some centres undefined) | > 100 µM
COC(=O)/C(C)=C1\CC[C@@]23C4C[C@@H](C(C)(C)C)C25C(OC(=O)[C@@H]5O)O[C@]13C(=O)O4 (some centres undefined) | > 100 µM
C[C@@H]1C(=O)O[C@H]2[C@H](O)[C@]34C5OC(=O)[C@@]3(OC3OC(=O)[C@H](O)C34[C@H](C(C)(C)C)[C@@H]5OC(=O)Cc3ccccc3)[C@@]12O (some centres undefined) | > 100 µM
CC(=O)O[C@H]1C(=O)OC2O[C@@]34C(=O)OC5C[C@@H](C(C)(C)C)C21[C@@]53C[C@@H]1OC(=O)[C@H](C)[C@@H]14 (some centres undefined) | > 100 µM
COC1C[C@@]23C4C[C@@H](C(C)(C)C)C25C(OC(=O)[C@@H]5OC)O[C@@]3(C(=O)O1)C(=O)O4 (some centres undefined) | > 100 µM
C[C@@H]1C(=O)O[C@H]2[C@H](O)[C@@]34C5OC(=O)[C@@]3(OC3OC(=O)[C@H](O)C34[C@H](C(C)(C)C)[C@H]5OS(=O)(=O)C(F)(F)F)[C@@]12O (some centres undefined) | > 100 µM
COC(=O)[C@H](OC)C12C(OC)O[C@@]34C(=O)OC(C[C@H]1C(C)(C)C)[C@]23C[C@@H]1OC(=O)[C@@H](C)[C@@]14O (some centres undefined) | > 100 µM
C[C@@H]1C(=O)O[C@H]2C[C@]34C5OC(=O)[C@]3(OC(O)C4[C@H](C(C)(C)C)[C@H]5O)[C@]21O (some centres undefined) | > 100 µM
CC(=O)O[C@H]1C(=O)OC2O[C@@]34C(=O)OC5C[C@@H](C(C)(C)C)C21[C@@]53C[C@@H]1OC(=O)[C@@H](C)[C@@]14O (some centres undefined) [10-ACETOXY-GINKGOLIDE B] | > 100 µM
C[C@@H]1CO[C@@H]2C[C@@]34C5C[C@@H](C(C)(C)C)C36C(OC(=O)[C@@H]6O)O[C@]4(C(=O)O5)[C@@]12O (some centres undefined) | > 100 µM
CC1=C2[C@H](C[C@]34[C@H]5C[C@@H](C(C)(C)C)[C@]36[C@@H](OC(=O)[C@@H]6O)O[C@]24OC5=O)OC1=O [3,14-DIDEHYDROGINKGOLIDE A] | 9.5 µM
C[C@@H]1C(=O)O[C@H]2[C@H](O)[C@]34[C@@H]5C(=O)O[C@@]3(O[C@@H]3OC(=O)[C@H](O)[C@@]34[C@H](C(C)(C)C)[C@@H]5N=[N+]=[N-])[C@@]12O | 29 µM
COCO[C@H]1C(=O)O[C@H]2O[C@@]34OC(=O)[C@@H]5C[C@@H](C(C)(C)C)[C@@]21[C@]53C[C@@H]1OC(=O)[C@@H](C)[C@@]14O [10-METHOXYMETHYLOXY-GINKGOLIDE A] | > 100 µM
C[C@@H]1C(=O)O[C@H]2C[C@@]34C5C[C@@H](C(C)(C)C)C3C(=O)O[C@]4(C(=O)O5)[C@]21O (some centres undefined) | > 100 µM
C[C@@H]1C(=O)O[C@H]2C[C@@]34C5C[C@@H](C(C)(C)C)C36C(=O)C(=O)OC6O[C@]4(C(=O)O5)[C@]21O (some centres undefined) | > 100 µM
